Read-out record for Spike glycoprotein (Severe acute respiratory syndrome coronavirus 2, UniProt P0DTC2): Kd
# output: bare number, implied unit µM

# annotated cases, reported Kd shown
* C=CCc1cc(CSc2nnc(-c3cccnc3)o2)c(O)c(-c2ccc(O)c(CC=C)c2)c1 | 7.29
* C=CCc1ccc(O)c(-c2ccc(O)c(CC=C)c2)c1 | 25

Consider the record given below.
The recorded Kd for entry C=CCc1cc(CSc2nnc(-c3ccccc3)o2)c(O)c(-c2ccc(O)c(CC=C)c2)c1 equals 6.94

----------
assay: Inhibition of alpha-glucosidase (unknown origin) using PNPG as substrate at 5 to 45 uM preincubated for 15 mins followed by substrate addition and measured after 10 mins by microplate reader analysis; settings: Homo sapiens; dose 5-45 µM, time 25.0 min
experimentalEndpoint: inhibition (%)
State just the number; it will be interpreted in %.

As a guide, the following entries are already answered.
• C=CCc1cc(CSc2nnc(-c3ccccc3Cl)o2)c(O)c(-c2ccc(O)c(CC=C)c2)c1 = 64.5
• C=CCc1cc(-c2cc(CC=C)c3oc(SCc4nnc(-c5cccc(Br)c5)o4)nc3c2)c2oc(SCc3nnc(-c4cccc(Br)c4)o3)nc2c1 = 12.4
• C=CCc1cc(-c2cc(CC=C)c3oc(SCc4nnc(-c5ccccc5)o4)nc3c2)c2oc(SCc3nnc(-c4ccccc4)o3)nc2c1 = 6.3
• C=CCc1cc(CSc2nnc(-c3cccc(C)c3)o2)c(O)c(-c2ccc(O)c(CC=C)c2)c1 = 78.2
• C=CCc1cc(CSc2nnc(-c3ccc(Br)cc3)o2)c(O)c(-c2ccc(O)c(CC=C)c2)c1 = 3.7

// sample C=CCc1cc(-c2cc(CC=C)c3oc(SCc4nnc(-c5ccccc5Cl)o4)nc3c2)c2oc(SCc3nnc(-c4ccccc4Cl)o3)nc2c1 , its inhibition was 19.4

Record summary for C=CCc1cc(-c2cc(CC=C)c3oc(SCc4nnc(-c5ccc(Cl)cc5)o4)nc3c2)c2oc(SCc3nnc(-c4ccc(Cl)cc4)o3)nc2c1 : reported inhibition = 57.9

Note to self: inhibition recorded for C=CCc1cc(-c2cc(CC=C)c3oc(SCc4nnc(-c5ccc(OC)cc5)o4)nc3c2)c2oc(SCc3nnc(-c4ccc(OC)cc4)o3)nc2c1 was 9.9

response.value for C=CCc1cc(-c2cc(CC=C)c3oc(SCc4nnc(-c5ccccc5OC)o4)nc3c2)c2oc(SCc3nnc(-c4ccccc4OC)o3)nc2c1 (field: inhibition) = 25.2

Reported inhibition ( C=CCc1cc(-c2cc(CC=C)c3oc(SCc4nnc(-c5cccc(C)c5)o4)nc3c2)c2oc(SCc3nnc(-c4cccc(C)c4)o3)nc2c1 ) = 95.2

The compound listed as C=CCc1cc(CSc2nnc(-c3ccc([N+](=O)[O-])cc3)o2)c(O)c(-c2ccc(O)c(CC=C)c2)c1 shows inhibition equal to 79.5

----------
Quick list: MNTC at 4 h per entry.
assay: Cytotoxicity against human HEK-293T cells overexpressing ACE2 assessed as maximal non-toxic dose incubated for 4 hrs; assay type: toxicity, cell-based

* C=CCc1cc(-c2cc(CC=C)c3oc(SCc4nnc(-c5ccc(Br)cc5)o4)nc3c2)c2oc(SCc3nnc(-c4ccc(Br)cc4)o3)nc2c1 | > 100 µM
* C=CCc1cc(-c2cc(CC=C)c3oc(SCc4nnc(-c5ccccc5Cl)o4)nc3c2)c2oc(SCc3nnc(-c4ccccc4Cl)o3)nc2c1 | > 100 µM
* C=CCc1cc(-c2cc(CC=C)c3oc(SCc4nnc(-c5ccccc5F)o4)nc3c2)c2oc(SCc3nnc(-c4ccccc4F)o3)nc2c1 | > 100 µM

MNTC at 4 h for C=CCc1cc(-c2cc(CC=C)c3oc(SCc4nnc(-c5cccc(Cl)c5)o4)nc3c2)c2oc(SCc3nnc(-c4cccc(Cl)c4)o3)nc2c1 is > 100 µM

----------
assay: Inhibition of alpha-glucosidase (unknown origin) using PNPG as substrate at 5 to 45 uM preincubated for 15 mins followed by substrate addition and measured after 10 mins by microplate reader analysis; settings: Homo sapiens; dose 5-45 µM, time 25.0 min
Use yes (1) when the recorded inhibition is no lower than 30%; use no (0) when it is lower.

Use the examples below as a reference point.
• C=CCc1cc(CSc2nnc(-c3ccccc3C)o2)c(O)c(-c2ccc(O)c(CC=C)c2)c1 = yes (1)
• C=CCc1cc(-c2cc(CC=C)c3oc(SCc4nnc(-c5cccc(OC)c5)o4)nc3c2)c2oc(SCc3nnc(-c4cccc(OC)c4)o3)nc2c1 = yes (1)
• C=CCc1cc(CSc2nnc(-c3ccc(Cl)cc3)o2)c(O)c(-c2ccc(O)c(CC=C)c2)c1 = no (0)
• C=CCc1cc(CSc2nnc(-c3cccc(F)c3)o2)c(O)c(-c2ccc(O)c(CC=C)c2)c1 = yes (1)

Task item: Confirm if inhibition reported for the compound C=CCc1cc(-c2cc(CC=C)c3oc(SCc4nnc(-c5cccc(F)c5)o4)nc3c2)c2oc(SCc3nnc(-c4cccc(F)c4)o3)nc2c1 is 30% or above.
Reply: no (0)

Task item: Determine whether this compound has inhibition no lower than 30%: C=CCc1cc(-c2cc(CC=C)c3oc(SCc4nnc(-c5ccccc5Br)o4)nc3c2)c2oc(SCc3nnc(-c4ccccc4Br)o3)nc2c1
Reply: yes (1)

Task item: Could you tell me if the measured inhibition of C=CCc1cc(-c2cc(CC=C)c3oc(SCc4nnc(-c5ccc(C)cc5)o4)nc3c2)c2oc(SCc3nnc(-c4ccc(C)cc4)o3)nc2c1 reaches 30% or more?
Reply: no (0)

Task item: Does the compound C=CCc1cc(CSc2nnc(-c3ccc(C)cc3)o2)c(O)c(-c2ccc(O)c(CC=C)c2)c1 have recorded inhibition that is 30% or more?
Reply: no (0)

Task item: Given C=CCc1cc(-c2cc(CC=C)c3oc(SCc4nnc(-c5ccc(Br)cc5)o4)nc3c2)c2oc(SCc3nnc(-c4ccc(Br)cc4)o3)nc2c1 , state whether its inhibition is at least 30%.
Reply: no (0)

Task item: # bool: inhibition of C=CCc1cc(-c2cc(CC=C)c3oc(SCc4nnc(-c5ccccc5F)o4)nc3c2)c2oc(SCc3nnc(-c4ccccc4F)o3)nc2c1 >= 30%
Reply: yes (1)

Task item: Item C=CCc1cc(-c2cc(CC=C)c3oc(SCc4nnc(-c5ccc(F)cc5)o4)nc3c2)c2oc(SCc3nnc(-c4ccc(F)cc4)o3)nc2c1 with inhibition of 30% or above?
Reply: no (0)

Task item: Check this compound for inhibition at or above 30%: C=CCc1ccc(O)c(-c2ccc(O)c(CC=C)c2)c1
Reply: no (0)

Task item: Has C=CCc1cc(CSc2nnc(-c3cccnc3)o2)c(O)c(-c2ccc(O)c(CC=C)c2)c1 a recorded inhibition greater than or equal to 30%?
Reply: yes (1)

Task item: Has C=CCc1cc(CSc2nnc(-c3ccccc3)o2)c(O)c(-c2ccc(O)c(CC=C)c2)c1 a recorded inhibition greater than or equal to 30%?
Reply: yes (1)

Task item: # bool: inhibition of C=CCc1cc(-c2cc(CC=C)c3oc(SCc4nnc(-c5cccc(Cl)c5)o4)nc3c2)c2oc(SCc3nnc(-c4cccc(Cl)c4)o3)nc2c1 >= 30%
Reply: no (0)

Task item: Record C=CCc1cc(CSc2nnc(-c3cccc(OC)c3)o2)c(O)c(-c2ccc(O)c(CC=C)c2)c1 ; criterion: inhibition no lower than 30%. Met?
Reply: yes (1)

----------
test: Cytotoxicity against human HEK-293T cells overexpressing ACE2 assessed as maximal non-toxic dose incubated for 4 hrs; assay type: toxicity, cell-based
experimentalEndpoint: MNTC at 4 h

MNTC at 4 h in this record for C=CCc1cc(-c2cc(CC=C)c3oc(SCc4nnc(-c5ccccc5Br)o4)nc3c2)c2oc(SCc3nnc(-c4ccccc4Br)o3)nc2c1 : > 100 µM

// field: MNTC at 4 h; key: C=CCc1cc(CSc2nnc(-c3ccccc3F)o2)c(O)c(-c2ccc(O)c(CC=C)c2)c1 ; value = > 100 µM

C=CCc1cc(-c2cc(CC=C)c3oc(SCc4nnc(-c5cccc(F)c5)o4)nc3c2)c2oc(SCc3nnc(-c4cccc(F)c4)o3)nc2c1 has a reported MNTC at 4 h of > 100 µM

meta.source: ChEMBL document CHEMBL5126577
